Here the recorded T/C is given for each entry.
Test system: BDF1 mice, P388 leukemia ip, median survival T/C
Experiment notes: NCI In Vivo Anticancer Drug Screen. Data for tumor model P388 Leukemia (intraperitoneal) in B6D2F1 (BDF1) mice
Assay setup: endpoint: median survival time; dose: 100.0 mg/kg/injection; schedule: Q04DX003 (ip); vehicle: Klucel (hydroxypropylcellulose) (HPC); higher = longer survival
Inconclusive results and toxic doses are left out.
Measured quantity: T/C

Sc1ccc2ccccc2c1	109 % of control
O=C(O)C1CC=CCCC1 (stereo unspecified)	91 % of control
Brc1csc2ncccc12	90 % of control
Nc1c(C(=O)O)ccc2c1C(=O)c1ccccc1C2=O	120 % of control
COC(=O)C1CCCC23CC(CC12)C(C)(C)C3Br (stereo unspecified)	95 % of control
C/C(=C\n1ccccc1=N)C(=O)c1ccc(F)cc1	95 % of control
O=C(O)c1c(Cl)c(Cl)c(Cl)c(C(=O)O)c1Cl	95 % of control
NC(=O)c1cn[nH]c1N	104 % of control
Nc1c(Br)cc(Br)cc1Br	100 % of control
CC(Cl)CN(Cc1cc(O)c(CN(CC(C)Cl)CC(C)Cl)cc1O)CC(C)Cl (stereo unspecified)	118 % of control
CCOC(=O)N1c2ccccc2C=CC1/C(N)=N/O (stereo unspecified)	95 % of control
CC(=O)c1ccc(Cc2ccc(C(C)=O)cc2)cc1	100 % of control
CC(C)=NNS(=O)(=O)c1ccc(C)cc1	111 % of control
CCN(CC)C1=C(N(CC)CC)C(N(CC)CC)=C(N(CC)CC)C1=O.[C-]#[O+].[C-]#[O+].[C-]#[O+].[Fe]	101 % of control
CCOC(=O)C(C)C(=O)Cc1cc(OC)c(C)cc1Br (stereo unspecified)	91 % of control
CC(O)c1ccc(-c2ccccc2)cc1 (stereo unspecified)	95 % of control
COc1cccc(CC(=O)C(=O)O)c1	115 % of control
CCCCCCCCCCC(CCCCCCCCCC)CCCCCCCCC(CCCCCCCCCC)CCCCCCCCCC	108 % of control
Cc1ccc(S(=O)(=O)N/N=C/c2ccccc2)cc1	103 % of control
CN(C)c1ccc(C=O)c(Br)c1	90 % of control
C[C@]12CC[C@@H]3c4ccc(O)cc4CC[C@H]3[C@@H]1C[C@H](O)C2	100 % of control
CCCCc1c(C(=O)OCC)oc(C(=O)OCC)c(CCCC)c1=O	91 % of control
COC(OC)c1[nH]c(=S)[nH]c(=O)c1Cc1cccc(Cl)c1	113 % of control
COC(OC)c1cc(=O)[nH]c(=S)n1Cl	100 % of control
CCCCNS(=O)(=O)c1ccc(OC)c(N)c1	95 % of control
C(=NCCc1ccccc1)c1ccccc1B1OB(c2ccccc2C=NCCc2ccccc2)OB(c2ccccc2C=NCCc2ccccc2)O1	100 % of control

====

Test system: BDF1 mice, P388 leukemia ip, median survival T/C
Experiment notes: NCI In Vivo Anticancer Drug Screen. Data for tumor model P388 Leukemia (intraperitoneal) in B6D2F1 (BDF1) mice
Assay setup: endpoint: median survival time; dose: 75.0 mg/kg/injection; schedule: Q04DX003 (ip); vehicle: saline
Procedure: The antitumor activity of compounds was measured in mice bearing transplantable tumors. Survival or tumor size were measured and the results are expressed as the measurement made in the treated group (T) divided by the measurement made in the vehicle treated control group (C). The tumor model used in this assay is P388 Leukemia (intraperitoneal) in B6D2F1 (BDF1) mice
Inconclusive results and toxic doses are left out. How the source made its calls: active means survival T/C of 150% or more; inactive means T/C below 125% in these data.
Labels: y for active, n for inactive

CCCCCCCCOP(=O)(N1CC1)N1CC1	y
CCCCCCCOC(C[N+](=O)[O-])C(Cl)(Cl)Cl (centres undefined)	n
CCC1=C(C[C@H]2NCCc3cc(OC)c(OC)cc32)C[C@H]2c3cc(OC)c(OC)cc3CCN2C1	n
C/C(=N\[N+](C)(C)C)c1cccc(C)n1	n

====

System: BDF1 mice, P388 leukemia ip, median survival T/C
Experiment notes: NCI In Vivo Anticancer Drug Screen. Data for tumor model P388 Leukemia (intraperitoneal) in B6D2F1 (BDF1) mice
Assay setup: endpoint: median survival time; dose: 25.0 mg/kg/injection; schedule: Q01DX009 (ip); vehicle: saline
Toxic doses and inconclusive results are not listed. The calls were made as follows: active = survival T/C of 150% or more; inactive = T/C below 125% in these data.
Labels: 1 (yes) for active, 0 (no) for inactive

c1ccc2c(c1)Sc1ccccc1N2CCCN1CCCC1	0 (no)
O=C(C[n+]1ccc2ccccc2c1)c1ccc(Br)cc1	0 (no)
CN1CCN(C(=O)N2c3ccccc3Sc3ccccc32)CC1	0 (no)
CS(=O)(=O)OCCCCCOS(C)(=O)=O	0 (no)
CCCCCCCCOP(=O)(N1CC1)N1CC1	1 (yes)
CCN(CC)Cc1cc(Nc2c3ccccc3nc3cc(Cl)ccc23)ccc1O	0 (no)
C/C(=N\[N+](C)(C)C)c1cccc(C)n1	0 (no)
NCCS(=O)(=O)O	0 (no)
C#CC(C)OCC(O)CCl (configuration not stated)	0 (no)
CC(=O)Nc1ccc(C(=O)O)c([N+](=O)[O-])c1	0 (no)
C[N+]1=C2CCCCC2=C(N)CC1	0 (no)
ClCC(Cl)CN1CCCCC1 (configuration not stated)	0 (no)
CNC(CNC(CO)CC(C)C)Cc1ccc(OCc2ccccc2)cc1 (configuration not stated)	0 (no)
CCC1C2CC3C4N(C)c5ccc(Br)cc5C45CC(C2C5O)[N+]3(CC(O)CN2CCCCC2)C1O (configuration not stated)	0 (no)
COC(=O)C1C(O)CCC2CN3CCc4c([nH]c5ccccc45)C3CC21 (configuration not stated)	0 (no)
NC(CSCc1ccccc1)CSCc1ccccc1	0 (no)
S=C1CCNCC1	0 (no)
COc1ccc(/C=C/C(C)=O)cc1OC	0 (no)
O=C(O)CSC(CC(=O)O)C(F)(F)C(F)(F)C(F)(F)F (configuration not stated)	0 (no)
O=C(/C=C/c1ccc2c(c1)OCO2)/C=C/c1ccc2c(c1)OCO2	0 (no)
Cc1nc(Cl)c2cnccn12	0 (no)
Cc1cccc(N)n1 (tested in a mixture with another compound)	0 (no)
CC(=O)O.CC(=O)O.[NH-]C(CCC(N)=O)C(=O)O.[NH-]C(CCC(N)=O)C(=O)O.[Ni+2] (configuration not stated)	0 (no)
Cc1cccc(Br)[n+]1[O-]	0 (no)
O=C(O)C(OP(=O)(O)O)C(=O)O	0 (no)
NNc1nncc2ccccc12	0 (no)
CC(O)(c1ccc(Br)cc1)C(c1ccccc1)c1ccccn1 (configuration not stated)	0 (no)

====

Here the recorded T/C is given for each entry.
Test system: BDF1 mice, P388 leukemia ip, median survival T/C
Experiment notes: NCI In Vivo Anticancer Drug Screen. Data for tumor model P388 Leukemia (intraperitoneal) in B6D2F1 (BDF1) mice
Assay setup: endpoint: median survival time; dose: 100.0 mg/kg/injection; schedule: Q01DX009 (ip); vehicle: saline; higher = longer survival
Description: The antitumor activity of compounds was measured in mice bearing transplantable tumors. Survival or tumor size were measured and the results are expressed as the measurement made in the treated group (T) divided by the measurement made in the vehicle treated control group (C). The tumor model used in this assay is P388 Leukemia (intraperitoneal) in B6D2F1 (BDF1) mice
Toxic doses and inconclusive results are not listed.
Measured quantity: T/C

CCOC(=O)NC(=O)CC	115 % of control
COc1ccc(C(C)=O)c(OC)c1C	104 % of control
COc1cc(N2CCOCC2)ccc1[N+](=O)[O-]	91 % of control
C[N+](C)(C)CCCC[N+](C)(C)C	87 % of control
CCCCC(C#N)(C(=O)OCC)C(C)(C)C (stereo not drawn)	109 % of control
CN[C@@H]1[C@H](O)[C@H](NC)[C@H]2O[C@@]3(O)C(=O)C[C@@H](C)O[C@H]3O[C@@H]2[C@H]1O	99 % of control
CC(=O)Nc1ccc2c3c(ccc([N+](=O)[O-])c13)CC2	90 % of control
O/N=C(/C(=N/O)c1ccccc1)c1ccccc1.O/N=C(/C(=N/O)c1ccccc1)c1ccccc1.[Cl][Rh][Cl]	94 % of control
C/C(=C\Br)CO	105 % of control
COc1cc(/C=N\O)nc(-c2ccccn2)c1	114 % of control
NC(=O)C(N)CCSCC(=O)O (stereo not drawn)	91 % of control
Cc1ccc(O)cc1Cl	96 % of control
Nc1ccn(C2OC(CO)C(O)C2O)c(=O)c1 (stereo not drawn)	112 % of control

====

Test system: BDF1 mice, P388 leukemia ip, median survival T/C
Experiment notes: NCI In Vivo Anticancer Drug Screen. Data for tumor model P388 Leukemia (intraperitoneal) in B6D2F1 (BDF1) mice
Assay setup: endpoint: median survival time; dose: 400.0 mg/kg/injection; schedule: Q04DX003 (ip); vehicle: saline sonified; higher = longer survival
Toxic doses and inconclusive results are not listed.
Measured quantity: T/C

Cn1cnc([N+](=O)[O-])c1Sc1ncnc2nc[nH]c12	109 % of control
O=[N+]([O-])c1ccccc1CN1c2ccccc2N=C2c3ccccc3CC21 (stereo not given)	91 % of control
CC1(C)c2ccccc2C2C1C1(Cl)C(=O)C2(Cl)C(Cl)=C1Cl (stereo not given)	100 % of control
COc1ccc(Nc2nc(N)nc(CNc3ccc(Cl)cc3)n2)cc1	110 % of control
O=C1C(C2OC2c2ccccc2)CCCC1C1OC1c1ccccc1 (stereo not given)	95 % of control
